These data points were gathered from the supplement of paper PMC5844555.

test system: TP53; assay: 3' UTR reporter interaction score (median-centred robust z-score of log2 firefly/Renilla activity); higher = less repression of the 3' UTR reporter; details: HEK293T; 48 h
For each record, write down the corresponding 3' UTR reporter interaction score.
One number for each entry.

Before answering, review these 10 worked examples.
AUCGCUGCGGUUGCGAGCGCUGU; -0.536
GAGCCAGUUGGACAGGAGC; 1
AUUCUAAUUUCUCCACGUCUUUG; 0.345
GUGUCUGCUUCCUGUGGGA; 0.286
UGGAGAGAAAGGCAGUUC; -1.31
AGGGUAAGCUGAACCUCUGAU; 0.182
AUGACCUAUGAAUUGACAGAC; 0.0613
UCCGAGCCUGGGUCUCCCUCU; 0.107
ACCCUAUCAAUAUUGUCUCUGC; -0.169
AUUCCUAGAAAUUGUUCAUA; -0.0494

For every listed record, write down its 3' UTR reporter interaction score.
1. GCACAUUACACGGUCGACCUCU
2. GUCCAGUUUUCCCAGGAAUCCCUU

1. -0.315
2. -0.611

For every listed record, write down its 3' UTR reporter interaction score.
1. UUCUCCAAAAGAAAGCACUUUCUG
2. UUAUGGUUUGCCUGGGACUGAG
3. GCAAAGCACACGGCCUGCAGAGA
4. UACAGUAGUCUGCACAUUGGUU
5. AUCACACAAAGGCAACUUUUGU
6. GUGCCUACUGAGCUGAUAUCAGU
7. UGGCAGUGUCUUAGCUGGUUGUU

1: -0.447; 2: -1.16; 3: -0.0423; 4: -1.16; 5: -0.723; 6: 0.396; 7: 1.68

For every listed record, write down its 3' UTR reporter interaction score.
1. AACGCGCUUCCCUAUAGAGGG
2. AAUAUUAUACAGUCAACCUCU
3. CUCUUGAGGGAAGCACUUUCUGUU
4. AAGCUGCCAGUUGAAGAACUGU
5. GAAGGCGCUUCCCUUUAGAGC
6. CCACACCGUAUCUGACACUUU

[1.12, 0.359, 0.305, -0.365, -0.514, 0.0153]

For every listed record, write down its 3' UTR reporter interaction score.
1. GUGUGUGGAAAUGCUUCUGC
2. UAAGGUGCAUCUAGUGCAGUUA
3. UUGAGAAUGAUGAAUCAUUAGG
4. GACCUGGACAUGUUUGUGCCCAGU
5. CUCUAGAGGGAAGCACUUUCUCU
6. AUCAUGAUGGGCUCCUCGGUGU

1: -0.707; 2: 0.488; 3: 0.335; 4: -0.242; 5: -0.432; 6: 0.202

For every listed record, write down its 3' UTR reporter interaction score.
1. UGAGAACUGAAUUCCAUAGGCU
2. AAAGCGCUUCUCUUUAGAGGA
3. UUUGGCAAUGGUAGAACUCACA
4. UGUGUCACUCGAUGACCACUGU
5. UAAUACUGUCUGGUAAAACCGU

[-0.401, -0.0242, 0.0472, 0.4, 0.0543]

For every listed record, write down its 3' UTR reporter interaction score.
1. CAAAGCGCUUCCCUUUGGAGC
2. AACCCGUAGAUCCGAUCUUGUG
3. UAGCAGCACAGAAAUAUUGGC

[-0.385, -0.247, 0.439]

For every listed record, write down its 3' UTR reporter interaction score.
1. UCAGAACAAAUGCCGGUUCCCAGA
2. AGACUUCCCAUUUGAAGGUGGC
3. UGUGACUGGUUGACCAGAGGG
4. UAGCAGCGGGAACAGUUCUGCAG

1. -1.5
2. -0.0594
3. 0.803
4. 1.12

For every listed record, write down its 3' UTR reporter interaction score.
1. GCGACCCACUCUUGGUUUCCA
2. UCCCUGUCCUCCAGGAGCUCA
3. UGGUAGACUAUGGAACGUA
4. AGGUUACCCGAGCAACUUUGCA
5. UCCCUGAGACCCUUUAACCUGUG

0.384
0.159
-0.283
-1.44
-3.91
